Task for the reader: assign each of the following compounds its reported log10(IC50).
Test target: KRas^G12R (Homo sapiens, UniProt P01116, G12R)
Construct: Biotinylated KRas (corresponding to amino acids 1-169, produced at Accelegan Inc.); biotin (biotinylated); purchased Accelegan Inc
Sequence (P01116 1-169 isoform P01116-2 G12R): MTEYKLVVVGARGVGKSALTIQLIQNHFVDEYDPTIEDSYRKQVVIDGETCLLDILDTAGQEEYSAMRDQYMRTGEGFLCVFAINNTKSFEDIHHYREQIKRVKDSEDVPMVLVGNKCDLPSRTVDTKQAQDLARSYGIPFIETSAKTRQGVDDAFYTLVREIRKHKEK
Protocol: KRas binding assay (TR-FRET tracer displacement), KRas G12R
In our notation, the value equals log10 of IC50 in nM.

Look up and report log10(IC50), with KRas^G12R (Homo sapiens, UniProt P01116, G12R) as system, for CCc1c(F)ccc2cc(O)cc(-c3ncc4c(N5CCC[C@@](C)(O)C5)nc(OC[C@]56CCCN5[C@H](CF)CC6)nc4c3F)c12
0.48

Look up and report log10(IC50), with KRas^G12R (Homo sapiens, UniProt P01116, G12R) as system, for CCc1c(F)ccc2cc(O)cc(-c3ncc4c(N5CCC[C@@](C)(O)C5)nc(OC[C@]56CCCN5[C@@H](CNS(=O)(=O)N(C)C)CC6)nc4c3F)c12
0.78

Look up and report log10(IC50), with KRas^G12R (Homo sapiens, UniProt P01116, G12R) as system, for CCc1c(F)ccc2cc(O)cc(-c3ncc4c(N5CC6CCC(C5)C6(O)C(F)(F)F)nc(OC[C@@]56CCCN5C[C@H](F)C6)nc4c3F)c12 (stereo partly drawn)
1.41

Look up and report log10(IC50), with KRas^G12R (Homo sapiens, UniProt P01116, G12R) as system, for Oc1cc2ccccc2c(-c2ncc3c(N4C[C@@H]5C[C@H](C4)[C@H](O)C5)nc(OC[C@@]45CCCN4C[C@H](F)C5)nc3c2F)c1F
2.14

Look up and report log10(IC50), with KRas^G12R (Homo sapiens, UniProt P01116, G12R) as system, for CCc1c(F)ccc2cc(O)cc(-c3ncc4c(N5CCC6CCCC5C6)nc(OC[C@@]56CCCN5C[C@H](F)C6)nc4c3F)c12 (stereo partly drawn)
1.85

----------
Test target: KRas^G12R (Homo sapiens, UniProt P01116, G12R)
Construct: Biotinylated KRas (corresponding to amino acids 1-169, produced at Accelegan Inc.); biotin (biotinylated); purchased Accelegan Inc
Protocol: KRas binding assay (TR-FRET tracer displacement), KRas G12R
Task for the reader: assign each of the following compounds its reported IC50.
Give the value in nM but do not write nM after it.

Give the value of IC50 reported for the following: CCc1c(F)ccc2cc(O)cc(-c3ncc4c(N5CCCn6nncc6C5)nc(OC[C@@]56CCCN5C[C@H](F)C6)nc4c3F)c12
3

Give the value of IC50 reported for the following: CCc1c(F)ccc2cc(O)cc(-c3ncc4c(N5CCCS(=O)(=O)CC5)nc(OC[C@@]56CCCN5C[C@H](F)C6)nc4c3F)c12
3

Give the value of IC50 reported for the following: CCc1c(F)ccc2cc(O)cc(-c3ncc4c(N5CC6(CO)CC5CCO6)nc(OC[C@@]56CCCN5C[C@H](F)C6)nc4c3F)c12 (stereo partly drawn)
162

Give the value of IC50 reported for the following: CCc1c(F)ccc2cc(O)cc(-c3ncc4c(N[C@H](C)CN5CC(C)(O)C5)nc(OC[C@@]56CCCN5C[C@H](F)C6)nc4c3F)c12
727

Give the value of IC50 reported for the following: CCc1c(F)ccc2cc(O)cc(-c3ncc4c(N5CC6CCC(C5)C6CO)nc(OC[C@@]56CCCN5C[C@H](F)C6)nc4c3F)c12 (stereo partly drawn)
11

Give the value of IC50 reported for the following: CCc1c(F)ccc2cc(O)cc(-c3ncc4c(N5CC6CCC(C(=O)NC)(C6)C5)nc(OC[C@@]56CCCN5C[C@H](F)C6)nc4c3F)c12 (stereo partly drawn)
5

Give the value of IC50 reported for the following: CCc1c(F)ccc2cc(O)cc(-c3ncc4c(N5CCCn6nc(P(C)(C)=O)cc6C5)nc(OC[C@@]56CCCN5C[C@H](F)C6)nc4c3F)c12
2

Give the value of IC50 reported for the following: CCc1c(F)ccc2cc(O)cc(-c3ncc4c(N5CCC6CNC(=O)NC6C5)nc(OC[C@@]56CCCN5C[C@H](F)C6)nc4c3F)c12 (stereo partly drawn)
281
